target: UniProtKB Q2M2I8; assay: KINOMEscan competition binding; conditions: compound 10.0 µM
Sequence (Q2M2I8 whole entry, looked up): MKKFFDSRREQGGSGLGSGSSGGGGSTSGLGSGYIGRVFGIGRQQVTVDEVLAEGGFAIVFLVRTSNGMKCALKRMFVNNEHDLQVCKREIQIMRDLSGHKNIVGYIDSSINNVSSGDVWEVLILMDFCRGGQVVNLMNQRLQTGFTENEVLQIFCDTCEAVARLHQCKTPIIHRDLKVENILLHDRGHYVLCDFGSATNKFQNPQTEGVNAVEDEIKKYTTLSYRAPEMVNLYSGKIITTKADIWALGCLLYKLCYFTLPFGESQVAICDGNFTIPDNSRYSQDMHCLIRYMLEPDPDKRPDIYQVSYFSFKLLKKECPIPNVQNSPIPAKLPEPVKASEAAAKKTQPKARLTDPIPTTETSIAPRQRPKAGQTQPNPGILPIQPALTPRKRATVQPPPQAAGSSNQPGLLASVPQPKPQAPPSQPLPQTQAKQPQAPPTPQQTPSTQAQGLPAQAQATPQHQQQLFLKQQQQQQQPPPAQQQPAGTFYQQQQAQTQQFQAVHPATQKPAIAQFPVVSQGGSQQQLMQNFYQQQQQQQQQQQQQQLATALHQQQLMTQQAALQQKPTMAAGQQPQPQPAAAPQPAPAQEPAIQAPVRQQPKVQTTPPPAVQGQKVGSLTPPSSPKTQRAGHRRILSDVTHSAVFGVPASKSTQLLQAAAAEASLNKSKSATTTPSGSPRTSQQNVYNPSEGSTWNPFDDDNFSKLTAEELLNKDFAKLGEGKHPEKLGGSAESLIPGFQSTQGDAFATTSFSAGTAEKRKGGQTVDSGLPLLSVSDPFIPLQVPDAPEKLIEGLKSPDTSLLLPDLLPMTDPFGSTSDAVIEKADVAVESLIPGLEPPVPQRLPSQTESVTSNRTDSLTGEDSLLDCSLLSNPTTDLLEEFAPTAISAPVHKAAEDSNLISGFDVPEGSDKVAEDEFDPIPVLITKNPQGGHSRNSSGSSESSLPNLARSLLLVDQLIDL
// thresholds for kinase still bound, per cent of control classes: range A: < 10%; range B: ≥ 10% and < 30%; range C: ≥ 30%

Please report the category associated with Cc1cn(-c2cc(NC(=O)c3cccc4cc(-c5ccc(/C=C6\SC(=N)NC6=O)o5)ccc34)cc(C(F)(F)F)c2)cn1 , nothing else.
range B

---

system: FGFR3 (human), P22607 [G697C]; experiment: KINOMEscan competition binding; conditions: compound 10.0 µM
Sequence (P22607 whole entry G697C, looked up): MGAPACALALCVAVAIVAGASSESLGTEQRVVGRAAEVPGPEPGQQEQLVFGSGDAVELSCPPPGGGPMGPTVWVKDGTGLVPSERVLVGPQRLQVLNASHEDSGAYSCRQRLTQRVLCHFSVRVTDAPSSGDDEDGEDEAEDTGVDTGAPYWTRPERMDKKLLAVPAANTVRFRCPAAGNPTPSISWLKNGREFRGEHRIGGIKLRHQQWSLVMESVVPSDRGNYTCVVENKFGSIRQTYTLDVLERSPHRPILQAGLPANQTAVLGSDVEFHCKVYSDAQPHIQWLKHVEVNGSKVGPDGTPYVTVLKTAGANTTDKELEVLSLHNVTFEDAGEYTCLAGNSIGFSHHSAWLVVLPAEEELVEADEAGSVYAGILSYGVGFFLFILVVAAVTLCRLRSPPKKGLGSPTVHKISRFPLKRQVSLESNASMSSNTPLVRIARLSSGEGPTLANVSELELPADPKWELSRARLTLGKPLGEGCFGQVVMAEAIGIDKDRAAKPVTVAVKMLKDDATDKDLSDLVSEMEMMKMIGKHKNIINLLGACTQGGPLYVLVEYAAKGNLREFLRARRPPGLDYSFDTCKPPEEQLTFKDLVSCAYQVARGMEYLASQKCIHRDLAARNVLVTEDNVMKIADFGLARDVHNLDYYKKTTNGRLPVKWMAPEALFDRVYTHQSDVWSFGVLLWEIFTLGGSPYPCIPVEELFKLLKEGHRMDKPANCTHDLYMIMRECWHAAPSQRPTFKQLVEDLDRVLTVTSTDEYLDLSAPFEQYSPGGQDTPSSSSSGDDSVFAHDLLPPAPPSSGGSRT
REPORTED_METRIC: kinase still bound, per cent of control (%)
Answer with a number only, understood to be in %.

Record excerpt, results attached:
CN1C(=O)c2ccccc2N(C)c2nc(Nc3ccc(N4CCC(O)CC4)cc3)ncc21    81
CN1CCN(c2ccc(C(=O)Nc3ncc4c(n3)N(C)c3ccccc3C(=O)N4C)cc2)CC1    98
COc1cc(N2CCC(O)CC2)ccc1Nc1ncc2c(n1)N1CCc3cccc(c31)C(=O)N2C    97
CN1C(=O)c2ccccc2N(C)c2nc(NS(=O)(=O)c3ccc(N)cc3)ncc21    100

# kinase still bound, per cent of control lookup, item COc1cc(N2CCN(C)CC2)ccc1Nc1ncc2c(n1)N(C)c1sccc1C(=O)N2C
83

# kinase still bound, per cent of control lookup, item COc1cc(N2CCN(C)CC2)ccc1Nc1ncc2c(n1)N(C)c1ccccc1N(C)C2=O
100

# kinase still bound, per cent of control lookup, item O=C1NC(=O)/C(=C/c2c[nH]c(=O)c(-c3ccc(N4CCNCC4)nc3)c2)S1
100

# kinase still bound, per cent of control lookup, item COc1cc(N2CCN(C)CC2)ccc1Nc1ncc2c(n1)Nc1ccccc1NC2=O
84

---

Listed below: kinase still bound, per cent of control values for each entry.
biological target: UniProt:P48730; test: KINOMEscan competition binding; conditions: compound 10.0 µM
Sequence (P48730 whole entry, looked up): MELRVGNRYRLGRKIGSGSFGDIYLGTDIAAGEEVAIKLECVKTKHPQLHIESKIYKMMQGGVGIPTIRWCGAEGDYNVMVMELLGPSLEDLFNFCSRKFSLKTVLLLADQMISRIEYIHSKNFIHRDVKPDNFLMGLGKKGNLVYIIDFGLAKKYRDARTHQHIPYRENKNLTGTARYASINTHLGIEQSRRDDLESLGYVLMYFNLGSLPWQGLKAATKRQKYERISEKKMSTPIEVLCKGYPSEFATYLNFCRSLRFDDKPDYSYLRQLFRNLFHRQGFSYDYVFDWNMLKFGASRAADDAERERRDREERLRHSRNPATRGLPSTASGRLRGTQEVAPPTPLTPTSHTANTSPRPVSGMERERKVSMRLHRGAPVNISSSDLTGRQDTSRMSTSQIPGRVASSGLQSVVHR
Answer with a number only, understood to be in %.

COc1cc(N2CCN(C)CC2)ccc1Nc1ncc2c(n1)N(C)c1sccc1C(=O)N2C    81
O=C1NC(=O)/C(=C/c2c[nH]c(=O)c(-c3ccc(N4CCNCC4)nc3)c2)S1    13
N=C1NC(=O)/C(=C/c2ccc(-c3cccc4cc[nH]c34)o2)S1    30
CS(=O)(=O)Nc1ccc(-c2cncc(/C=C3\SC(=N)NC3=O)c2)cc1    1.4

# kinase still bound, per cent of control lookup, item COc1cc(N2CCN(C)CC2)ccc1Nc1ncc2c(n1)Nc1ccccc1NC2=O
42

---

biological target: UniProt:P0C264; assay: KINOMEscan competition binding; settings: compound 10.0 µM
Sequence (P0C264 whole entry, looked up): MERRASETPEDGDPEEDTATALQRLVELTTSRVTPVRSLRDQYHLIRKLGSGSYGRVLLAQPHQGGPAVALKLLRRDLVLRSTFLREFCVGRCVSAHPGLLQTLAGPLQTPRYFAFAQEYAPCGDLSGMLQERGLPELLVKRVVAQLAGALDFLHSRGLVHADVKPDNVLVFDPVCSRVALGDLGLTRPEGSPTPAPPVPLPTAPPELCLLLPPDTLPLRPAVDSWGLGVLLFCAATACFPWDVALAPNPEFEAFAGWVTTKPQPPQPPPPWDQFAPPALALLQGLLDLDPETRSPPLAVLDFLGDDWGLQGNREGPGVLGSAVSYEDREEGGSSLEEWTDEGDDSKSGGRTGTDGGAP
REPORTED_METRIC: kinase still bound, per cent of control (%)
Answer with a number only, understood to be in %.

COc1cc(N2CCN(C)CC2)ccc1Nc1ncc2c(n1)Nc1ccccc1NC2=O    97

# kinase still bound, per cent of control lookup, item COc1cc(N2CCN(C)CC2)ccc1Nc1ncc2c(n1)N(C)c1ccccc1C(=O)N2
31

# kinase still bound, per cent of control lookup, item CN1CCN(c2ccc(C(=O)Nc3ncc4c(n3)N(C)c3ccccc3C(=O)N4C)cc2)CC1
100

# kinase still bound, per cent of control lookup, item CN1C(=O)c2ccccc2N(C)c2nc(Nc3ccc(N4CCC(O)CC4)cc3)ncc21
5.4

# kinase still bound, per cent of control lookup, item COc1cc(N2CCC(O)CC2)ccc1Nc1ncc2c(n1)N1CCc3cccc(c31)C(=O)N2C
100

# kinase still bound, per cent of control lookup, item CN1C(=O)c2ccccc2N(C)c2nc(NS(=O)(=O)c3ccc(N)cc3)ncc21
100

# kinase still bound, per cent of control lookup, item CN1C(=O)[C@H]2CCC[C@H]2N(C2CCCC2)c2nc(Nc3ccc(C(N)=O)cc3)ncc21
30

# kinase still bound, per cent of control lookup, item CN1C(=O)[C@H]2CCC[C@H]2N(C2CCCC2)c2nc(Nc3ccc4ncccc4c3)ncc21
30

# kinase still bound, per cent of control lookup, item COc1cc(N2CCN(C)CC2)ccc1Nc1ncc2c(n1)N(C)c1ccccc1C(=O)N2C
30
